- test target: T1, angiotensin-I-converting enzyme (UniProt P12822 34-1260)
- T1 sequence (looked up): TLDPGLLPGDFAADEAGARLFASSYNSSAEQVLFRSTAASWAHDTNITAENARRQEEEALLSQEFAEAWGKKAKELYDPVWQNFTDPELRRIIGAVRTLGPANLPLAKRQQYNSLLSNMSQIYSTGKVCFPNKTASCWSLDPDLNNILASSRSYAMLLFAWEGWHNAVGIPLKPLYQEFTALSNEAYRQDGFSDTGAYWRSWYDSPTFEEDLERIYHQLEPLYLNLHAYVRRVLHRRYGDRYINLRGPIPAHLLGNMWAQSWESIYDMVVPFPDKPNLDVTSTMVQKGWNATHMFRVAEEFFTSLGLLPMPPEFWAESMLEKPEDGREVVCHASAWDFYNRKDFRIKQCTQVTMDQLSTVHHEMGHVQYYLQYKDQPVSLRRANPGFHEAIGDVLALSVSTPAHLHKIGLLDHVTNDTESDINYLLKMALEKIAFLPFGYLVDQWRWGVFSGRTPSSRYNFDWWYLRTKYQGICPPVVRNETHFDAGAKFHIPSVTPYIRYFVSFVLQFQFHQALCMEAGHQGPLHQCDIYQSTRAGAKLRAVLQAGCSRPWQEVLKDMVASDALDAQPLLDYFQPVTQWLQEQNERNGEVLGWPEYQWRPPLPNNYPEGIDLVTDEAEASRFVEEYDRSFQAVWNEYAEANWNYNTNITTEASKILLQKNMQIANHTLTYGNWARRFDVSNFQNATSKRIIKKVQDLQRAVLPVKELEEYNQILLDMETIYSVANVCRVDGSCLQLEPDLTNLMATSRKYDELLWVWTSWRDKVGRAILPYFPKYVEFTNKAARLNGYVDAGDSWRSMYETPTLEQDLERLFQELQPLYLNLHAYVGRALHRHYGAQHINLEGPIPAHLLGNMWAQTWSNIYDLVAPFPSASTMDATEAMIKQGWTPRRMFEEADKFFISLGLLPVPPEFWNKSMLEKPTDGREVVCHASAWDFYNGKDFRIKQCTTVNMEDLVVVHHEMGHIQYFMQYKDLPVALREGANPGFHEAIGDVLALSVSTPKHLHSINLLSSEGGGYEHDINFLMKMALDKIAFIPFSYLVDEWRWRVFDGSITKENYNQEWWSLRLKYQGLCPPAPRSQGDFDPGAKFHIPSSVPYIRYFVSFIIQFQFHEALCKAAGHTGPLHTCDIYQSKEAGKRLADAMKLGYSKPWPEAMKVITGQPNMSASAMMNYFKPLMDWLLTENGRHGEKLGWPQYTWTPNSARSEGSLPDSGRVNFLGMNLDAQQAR
I'd be grateful if you could share measured ACE-inhibitory activity (hippuric acid formed from HHL, RP-HPLC), IC50 for these entries.
One number for each entry, in µM.

# annotated cases, reported ACE-inhibitory activity (hippuric acid formed from HHL, RP-HPLC), IC50 shown
VLGA 1370
YVLL 154
TVLL 582

Consider the record given below.
*Q* Sample SAAL — what was its ACE-inhibitory activity (hippuric acid formed from HHL, RP-HPLC), IC50?
*A* 883
